test: Half life in C57BL/6 mouse at 0.5 mg/kg, iv and 1 mg/kg, po by LC/MS/MS analysis; format: ADME, organism-based; details: in vivo
Measured half-life, listed per entry.
Please give a number only; it is taken to be in h.

Field: example entries. Status: answers known.
| COMPOUND | RESULT UNITS | half-life |
| --- | --- | --- |
| FC(F)(F)Oc1ccc(CN2CCC3(CC2)OC(c2cc(Cl)cc(Cl)c2)c2ccncc23)cc1 (racemic) | h | 6.1 |
| CC(c1ccc(F)cn1)N1CCC2(CC1)OC(c1cc(Cl)cc(Cl)c1)c1cccnc12 (stereo not drawn) | h | 4 |
| FC(F)(F)Oc1ccc(CN2CCC3(CC2)OC(c2ccccn2)c2ccccc23)cc1 (racemic) | h | 5 |
| FC(F)(F)Oc1ccc(CN2CCC3(CC2)OC(c2ccc(Cl)cn2)c2ccccc23)cc1 (racemic) | h | 6.5 |

Inquiry: Retrieve half-life measured for CC(c1ccc(F)cn1)N1CCC2(CC1)OC(c1cc(Cl)ccn1)c1ccccc12 (racemic) and print it.
Reply text: 1.7

Inquiry: Retrieve half-life measured for Fc1ccc(CN2CCC3(CC2)OC(c2cc(Cl)cc(Cl)c2)c2ccccc23)nc1 (stereo not drawn) and print it.
Reply text: 7

Inquiry: Retrieve half-life measured for OCC(c1ccccc1)N1CCC2(CC1)OC(c1cc(Cl)cc(Cl)c1)c1cccnc12 (racemic) and print it.
Reply text: 2.3

Inquiry: Retrieve half-life measured for FC(F)(F)Oc1ccc(CN2CCC3(CC2)OC(c2cc(Cl)cc(Cl)c2)c2cccnc23)cc1 (stereo not drawn) and print it.
Reply text: 4

====

test: Clearance in C57BL/6 mouse at 1 mg/kg, iv and 2 mg/kg, po by LC/MS/MS analysis; assay type: ADME, organism-based; conditions: in vivo
ENDPOINT LABEL: clearance (mL/min/kg)
Please give a number only; it is taken to be in mL/min/kg.

| COMPOUND | clearance / mL/min/kg |
| --- | --- |
| FC(F)(F)Oc1ccc(CN2CCC3(CC2)OC(c2cc(Cl)ccn2)c2cccnc23)cc1 (racemic) | 74 |
| [O-][n+]1ccc(Cl)cc1C1OC2(CCN(Cc3ccc(OC(F)(F)F)cc3)CC2)c2ccccc21 (single isomer, unassigned) | 57 |
| FC(F)(F)Oc1ccc(CN2CCC3(CC2)OC(c2cc(Cl)cc(Cl)c2)c2ccccc23)cc1 (centres undefined) | 8.1 |

Okay, now this compound:
Inquiry: Retrieve clearance measured for FC(F)(F)Oc1ccc(CN2CCC3(CC2)OC(c2cc(Cl)ccn2)c2ccccc23)cc1 (centres undefined) and print it.
Reply text: 45

====

test: Drug uptake in established diet-induced obese C57BL/6 mouse blood at 10 mg/kg, po qd for 2 days; format: ADME, organism-based; parameters: dose 10 mg/kg, route oral; conditions: read-out: Drug uptake
ENDPOINT LABEL: concentration at 48 h (nM)
Please give a number only; it is taken to be in nM.

Inquiry: Retrieve concentration at 48 h measured for FC(F)(F)Oc1ccc(CN2CCC3(CC2)OC(c2cc(Cl)ccn2)c2ccccc23)cc1 (stereo unspecified) and print it.
Reply text: 280

====

Measured clearance, listed per entry.
test: Clearance in C57BL/6 mouse at 0.5 mg/kg, iv and 1 mg/kg, po by LC/MS/MS analysis; type: ADME, organism-based; conditions: in vivo
Please give a number only; it is taken to be in mL/min/kg.

| MOLECULE | RESULT UNITS | OBSERVED RESULT |
| --- | --- | --- |
| CC(c1ccc(F)cn1)N1CCC2(CC1)OC(c1cc(Cl)cc(Cl)c1)c1ccccc12 (racemic) | mL/min/kg | 31 |
| CC(c1ccc(F)cn1)N1CCC2(CC1)OC(c1cc(Cl)ccn1)c1cccnc12 (racemic) | mL/min/kg | 127 |
| FC(F)(F)Oc1ccc(CN2CCC3(CC2)OC(c2cc(Cl)cc(Cl)c2)c2ccncc23)cc1 (racemic) | mL/min/kg | 35 |

Okay, now this molecule:
Inquiry: Retrieve clearance measured for OCC(c1ccccc1)N1CCC2(CC1)OC(c1cc(Cl)cc(Cl)c1)c1cccnc12 (racemic) and print it.
Reply text: 126

Source listed as ChEMBL document CHEMBL1949630.
